Assay: Tmax in Sprague dawley rat at 3 mg/kg, po
Type: ADME, organism-based
Settings: in vivo

>  <CHEMICAL_STRUCTURE>
CN1CCN(c2ccc(C(=O)Nc3n[nH]c4c3CN(Cc3cc(F)cc(F)c3)C4(C)C)cc2)CC1

>  <UNITS_OF_MEASURE>
h

>  <Tmax>
1.67

$$$$

* * *

# collection of IC50 values tested on UniProt P04629
# Sequence (P04629 whole entry): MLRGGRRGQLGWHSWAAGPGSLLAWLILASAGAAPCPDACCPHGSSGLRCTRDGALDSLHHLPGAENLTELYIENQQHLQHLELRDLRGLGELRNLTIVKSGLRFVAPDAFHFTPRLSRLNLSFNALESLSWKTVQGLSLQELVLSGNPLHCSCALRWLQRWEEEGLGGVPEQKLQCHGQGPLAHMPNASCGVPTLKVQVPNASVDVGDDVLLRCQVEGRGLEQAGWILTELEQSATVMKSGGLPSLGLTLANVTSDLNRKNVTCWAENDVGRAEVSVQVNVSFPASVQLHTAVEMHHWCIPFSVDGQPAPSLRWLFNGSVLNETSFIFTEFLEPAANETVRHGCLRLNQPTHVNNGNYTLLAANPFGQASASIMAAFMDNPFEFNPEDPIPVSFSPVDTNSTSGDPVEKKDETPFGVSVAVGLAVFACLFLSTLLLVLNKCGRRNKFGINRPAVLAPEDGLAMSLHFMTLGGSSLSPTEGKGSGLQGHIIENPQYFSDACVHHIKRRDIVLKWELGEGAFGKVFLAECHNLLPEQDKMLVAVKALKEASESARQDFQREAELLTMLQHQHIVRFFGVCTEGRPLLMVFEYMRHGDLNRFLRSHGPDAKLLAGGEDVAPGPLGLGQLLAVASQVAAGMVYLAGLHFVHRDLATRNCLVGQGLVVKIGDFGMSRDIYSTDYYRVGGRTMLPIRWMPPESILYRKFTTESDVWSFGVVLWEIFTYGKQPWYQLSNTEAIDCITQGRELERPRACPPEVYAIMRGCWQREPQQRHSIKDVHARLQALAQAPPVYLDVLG

>  <CHEMICAL_STRUCTURE>
CN(C)c1cccc(C(=O)Nc2n[nH]c3c2CN(Cc2cccc(F)c2F)C3(C)C)c1

>  <IC50>
420 nM

$$$$
>  <CHEMICAL_STRUCTURE>
CC1(C)c2[nH]nc(NC(=O)c3ccccc3)c2CN1Cc1ccc(F)c(F)c1

>  <IC50>
680 nM

$$$$
>  <CHEMICAL_STRUCTURE>
CC1(C)c2[nH]nc(NC(=O)c3ccc4ncccc4c3)c2CN1Cc1cc(F)cc(F)c1

>  <IC50>
180 nM

$$$$
>  <CHEMICAL_STRUCTURE>
CC1(C)c2[nH]nc(NC(=O)c3ccccc3)c2CN1Cc1cccc(C#N)c1

>  <IC50>
980 nM

$$$$
>  <CHEMICAL_STRUCTURE>
Cc1ccc(CN2Cc3c(NC(=O)c4ccccc4)n[nH]c3C2(C)C)cc1F

>  <IC50>
940 nM

$$$$
>  <CHEMICAL_STRUCTURE>
CC1(C)c2[nH]nc(NC(=O)c3ccccc3)c2CN1Cc1ccccc1

>  <IC50>
1240 nM

$$$$
>  <CHEMICAL_STRUCTURE>
CN1CCN(c2cccc(C(=O)Nc3n[nH]c4c3CN(Cc3cc(F)cc(F)c3)C4(C)C)c2)CC1

>  <IC50>
150 nM

$$$$
>  <CHEMICAL_STRUCTURE>
CC1(C)c2[nH]nc(NC(=O)c3ccccc3)c2CN1Cc1cccc(F)c1F

>  <IC50>
200 nM

$$$$
>  <CHEMICAL_STRUCTURE>
CC1(C)c2[nH]nc(NC(=O)c3ccccc3)c2CN1Cc1cc(F)ccc1F

>  <IC50>
480 nM

$$$$
>  <CHEMICAL_STRUCTURE>
CC1(C)c2[nH]nc(NC(=O)c3ccccc3)c2CN1Cc1c(F)cccc1F

>  <IC50>
520 nM

$$$$
>  <CHEMICAL_STRUCTURE>
Cc1cccc(CN2Cc3c(NC(=O)c4ccccc4)n[nH]c3C2(C)C)c1

>  <IC50>
1100 nM

$$$$
>  <CHEMICAL_STRUCTURE>
CC1(C)c2[nH]nc(NC(=O)c3ccccc3)c2CN1Cc1cccc([N+](=O)[O-])c1

>  <IC50>
600 nM

$$$$
>  <CHEMICAL_STRUCTURE>
CC1(C)c2[nH]nc(NC(=O)c3ccc(F)cc3)c2CN1Cc1cccc(F)c1F

>  <IC50>
210 nM

$$$$
>  <CHEMICAL_STRUCTURE>
CC1(C)c2[nH]nc(NC(=O)c3ccccc3)c2CN1Cc1cc(F)cc(C(F)(F)F)c1

>  <IC50>
1000 nM

$$$$
>  <CHEMICAL_STRUCTURE>
CC1(C)c2[nH]nc(NC(=O)c3ccc4ccccc4c3)c2CN1Cc1cc(F)cc(F)c1

>  <IC50>
440 nM

$$$$
>  <CHEMICAL_STRUCTURE>
CC1(C)c2[nH]nc(NC(=O)c3ccc(F)cc3)c2CN1Cc1cc(F)cc(F)c1

>  <IC50>
350 nM

$$$$
>  <CHEMICAL_STRUCTURE>
CC1(C)c2[nH]nc(NC(=O)c3cccc(N4CCOCC4)c3)c2CN1Cc1cccc(F)c1F

>  <IC50>
270 nM

$$$$
>  <CHEMICAL_STRUCTURE>
CC1(C)c2[nH]nc(NC(=O)c3ccc4ccccc4c3)c2CN1Cc1cccc(F)c1F

>  <IC50>
460 nM

$$$$
>  <CHEMICAL_STRUCTURE>
CC1(C)c2[nH]nc(NC(=O)c3ccccc3)c2CN1Cc1cccc(Br)c1

>  <IC50>
940 nM

$$$$
